- System: 616215-338-R-J1-PDC complex spheroid growth, % test/control
- experimental_details: Anticancer human tumor 616215-338-R-J1-PDC patient-derived colon adenocarcinoma cell line growth inhibition [Asc]
- condition_context: curve of first compound; second compound 0.316 µM
- Excerpt: Multicellular complex tumor spheroid response to apoptosis pathway targeting inhibitors Alrizomadlin, Pelcitoclax, and Dasminapant in combination with a variety of drugs and investigational agents in selected tumor cell lines […] Compounds. […] If the clinical Cmax for an agent had not been determined, the highest concentration tested was 10 microM. […]
readout_type: IC50 (nM)
Your answer should be a plain number; it is taken to be in nM.

Req: Could you tell me which IC50 is on file for C=C(F)C(=O)N1CCN(c2nc(OCC3CCCN3C)nc3c2CCN(c2cccc4cccc(Cl)c24)C3)CC1CC#N (configuration not stated) + CNC(C)C(=O)NC1CN(S(=O)(=O)c2cccc(S(=O)(=O)N3CCC4CCC(C(=O)NC(c5ccccc5)c5ccccc5)N4C(=O)C(NC(=O)C(C)NC)C3)c2)CCC2CCC(C(=O)NC(c3ccccc3)c3ccccc3)N2C1=O ?
Resp: 243

====

- Test system: 616215-338-R-J1-PDC complex spheroid growth, % test/control
- experimental_details: Anticancer human tumor 616215-338-R-J1-PDC cell line growth inhibition [Asc];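 note: spheroids exposed to agents for seven days before readout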;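 for viability, T/C: 100% = DMSO vehicle control viability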
- condition_context: second compound 1 µM; first compound 0.01 µM; stronger effect = lower value
For each entry below, report its viability, T/C value.
Your answer should be a plain number; it is taken to be in %.

Req: Could you tell me which viability, T/C is on file for COc1c(OCCCN2CCOCC2)ccc2c3n(c(=NC(=O)c4cnc(N)nc4)nc12)CCN3 + Cc1c(S(C)(=O)=O)c(-c2cc(F)cc(N3CCN(c4ccc(NS(=O)(=O)c5ccc(NC(CCN6CCC(C(=O)OCCCP(=O)(O)O)CC6)CSc6ccccc6)c(S(=O)(=O)C(F)(F)F)c5)cc4)CC3)c2)c(-c2ccc(Cl)cc2)n1C(C)C ?
Resp: 78.3

Req: Same question, NC1CCC(NC2CC2c2ccccc2)CC1 (stereo not drawn) + Cc1c(S(C)(=O)=O)c(-c2cc(F)cc(N3CCN(c4ccc(NS(=O)(=O)c5ccc(NC(CCN6CCC(C(=O)OCCCP(=O)(O)O)CC6)CSc6ccccc6)c(S(=O)(=O)C(F)(F)F)c5)cc4)CC3)c2)c(-c2ccc(Cl)cc2)n1C(C)C this time
Resp: 62.5

Req: Same question, NC1CCC(NC2CC2c2ccccc2)CC1 (stereo not drawn) + CNC(C)C(=O)NC1CN(S(=O)(=O)c2cccc(S(=O)(=O)N3CCC4CCC(C(=O)NC(c5ccccc5)c5ccccc5)N4C(=O)C(NC(=O)C(C)NC)C3)c2)CCC2CCC(C(=O)NC(c3ccccc3)c3ccccc3)N2C1=O this time
Resp: 72.9

====

For each entry below, report its viability, T/C value.
- Test system: 616215-338-R-J1-PDC complex spheroid growth, % test/control
- experimental_details: Anticancer human tumor 616215-338-R-J1-PDC cell line growth inhibition [Asc];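 note: spheroids exposed to agents for seven days before readout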;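 for viability, T/C: 100% = DMSO vehicle control viability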
- condition_context: second compound 0.00316 µM; first compound 0.00316 µM; stronger effect = lower value
Your answer should be a plain number; it is taken to be in %.

Req: Could you tell me which viability, T/C is on file for NC1CCC(NC2CC2c2ccccc2)CC1 (stereo not given) + CNC(C)C(=O)NC1CN(S(=O)(=O)c2cccc(S(=O)(=O)N3CCC4CCC(C(=O)NC(c5ccccc5)c5ccccc5)N4C(=O)C(NC(=O)C(C)NC)C3)c2)CCC2CCC(C(=O)NC(c3ccccc3)c3ccccc3)N2C1=O ?
Resp: 73.6

Req: Same question, Cn1ncnc1[C@H]1c2n[nH]c(=O)c3cc(F)cc(c23)N[C@@H]1c1ccc(F)cc1 + CNC(C)C(=O)NC1CN(S(=O)(=O)c2cccc(S(=O)(=O)N3CCC4CCC(C(=O)NC(c5ccccc5)c5ccccc5)N4C(=O)C(NC(=O)C(C)NC)C3)c2)CCC2CCC(C(=O)NC(c3ccccc3)c3ccccc3)N2C1=O this time
Resp: 7.58

Req: Same question, O=C(c1ccc(F)c(F)c1Nc1ccc(I)cc1F)N1CC(O)([C@@H]2CCCCN2)C1 + CNC(C)C(=O)NC1CN(S(=O)(=O)c2cccc(S(=O)(=O)N3CCC4CCC(C(=O)NC(c5ccccc5)c5ccccc5)N4C(=O)C(NC(=O)C(C)NC)C3)c2)CCC2CCC(C(=O)NC(c3ccccc3)c3ccccc3)N2C1=O this time
Resp: 113

Req: Same question, COc1c(OCCCN2CCOCC2)ccc2c3n(c(=NC(=O)c4cnc(N)nc4)nc12)CCN3 + CNC(C)C(=O)NC1CN(S(=O)(=O)c2cccc(S(=O)(=O)N3CCC4CCC(C(=O)NC(c5ccccc5)c5ccccc5)N4C(=O)C(NC(=O)C(C)NC)C3)c2)CCC2CCC(C(=O)NC(c3ccccc3)c3ccccc3)N2C1=O this time
Resp: 107

Req: Same question, CCN1CCN(Cc2ccc(Nc3ncc(F)c(-c4cc(F)c5nc(C)n(C(C)C)c5c4)n3)nc2)CC1 + CNC(C)C(=O)NC1CN(S(=O)(=O)c2cccc(S(=O)(=O)N3CCC4CCC(C(=O)NC(c5ccccc5)c5ccccc5)N4C(=O)C(NC(=O)C(C)NC)C3)c2)CCC2CCC(C(=O)NC(c3ccccc3)c3ccccc3)N2C1=O this time
Resp: 105
